Record form. Attribute: pIC50. Fill in for each entry.
target_entity: Human Aryl Hydrocarbon Receptor (AhR) (Homo sapiens, UniProt P35869)
Sequence (P35869 11-848): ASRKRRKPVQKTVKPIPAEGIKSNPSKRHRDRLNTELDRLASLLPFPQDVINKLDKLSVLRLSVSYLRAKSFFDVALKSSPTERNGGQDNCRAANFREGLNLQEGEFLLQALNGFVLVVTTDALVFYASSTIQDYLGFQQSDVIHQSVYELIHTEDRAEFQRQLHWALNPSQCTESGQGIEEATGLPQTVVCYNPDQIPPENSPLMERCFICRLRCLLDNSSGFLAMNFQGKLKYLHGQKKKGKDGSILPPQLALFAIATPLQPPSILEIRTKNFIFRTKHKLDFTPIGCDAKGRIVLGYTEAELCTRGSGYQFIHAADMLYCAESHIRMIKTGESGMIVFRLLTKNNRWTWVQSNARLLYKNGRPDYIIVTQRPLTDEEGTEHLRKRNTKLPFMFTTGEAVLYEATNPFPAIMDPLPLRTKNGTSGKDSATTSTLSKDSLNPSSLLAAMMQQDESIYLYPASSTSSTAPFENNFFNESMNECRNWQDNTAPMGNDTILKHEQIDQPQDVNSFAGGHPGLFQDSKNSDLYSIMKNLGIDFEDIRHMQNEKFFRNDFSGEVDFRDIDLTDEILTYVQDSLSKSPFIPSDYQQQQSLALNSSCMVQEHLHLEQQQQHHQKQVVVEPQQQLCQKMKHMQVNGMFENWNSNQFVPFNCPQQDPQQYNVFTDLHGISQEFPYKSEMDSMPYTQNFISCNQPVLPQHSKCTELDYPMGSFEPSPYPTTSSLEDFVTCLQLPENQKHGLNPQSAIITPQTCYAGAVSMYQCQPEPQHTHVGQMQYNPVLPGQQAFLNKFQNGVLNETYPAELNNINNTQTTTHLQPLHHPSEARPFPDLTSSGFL
assay_explanation: AHR antagonist reporter assay in human cell line (INDIGO AhR Reporter Assay System, kynurenic acid activated)
particulars: 200 μM kynurenic acid, 24 hours, luciferase; read-out: AhR Reporter Assay KA Antagonist Mode: IC50
pIC50: −log10 of the molar value.

**Q:** Form field: reported pIC50 of COC[C@H](C)NC(=O)c1cc(N2CCC3(CCCCC3)C2)nn(-c2cnn(C)c2)c1=O [Compound 145]
**A:** < 6.40

**Q:** Form field: reported pIC50 of COC[C@H](C)NC(=O)c1cc(C2CCC(C)(C)CC2)nn(-c2cnn(C)c2)c1=O [Compound 119]
**A:** < 6.40

**Q:** Form field: reported pIC50 of COC[C@H](C)NC(=O)c1cc(-n2ccc3ccccc32)nn(-c2cnn(C)c2)c1=O [Compound 151]
**A:** < 6.40

**Q:** Form field: reported pIC50 of Cn1cc(-n2nc(-c3ccc(Cl)cc3)cc(C(=O)N[C@H]3CCCCNC3=O)c2=O)cn1 [59 - *stereo-pure]
**A:** > 7.00

**Q:** Form field: reported pIC50 of C[C@@H](CO)n1cnc2c(-c3cnn(C)c3)nc(-c3cnc(-c4ccc(F)cc4)nc3)cc2c1=O [Compound 200]
**A:** > 7.00

**Q:** Form field: reported pIC50 of COC[C@H](C)NC(=O)c1cc(-n2cc(C)c(C)n2)nn(-c2cnn(C)c2)c1=O [Compound 135]
**A:** < 6.40

**Q:** Form field: reported pIC50 of COC[C@H](C)NC(=O)c1cc(-c2ccc(-c3ccc(Cl)cc3)nc2)nn(-c2cnn(C)c2)c1=O [Compound 156]
**A:** > 7.00
